# IC50 annotations
# assayed_target: Phosphatidylinositol 4,5-bisphosphate 3-kinase catalytic subunit beta isoform (Homo sapiens)
# Sequence (P42338 whole entry, canonical isoform): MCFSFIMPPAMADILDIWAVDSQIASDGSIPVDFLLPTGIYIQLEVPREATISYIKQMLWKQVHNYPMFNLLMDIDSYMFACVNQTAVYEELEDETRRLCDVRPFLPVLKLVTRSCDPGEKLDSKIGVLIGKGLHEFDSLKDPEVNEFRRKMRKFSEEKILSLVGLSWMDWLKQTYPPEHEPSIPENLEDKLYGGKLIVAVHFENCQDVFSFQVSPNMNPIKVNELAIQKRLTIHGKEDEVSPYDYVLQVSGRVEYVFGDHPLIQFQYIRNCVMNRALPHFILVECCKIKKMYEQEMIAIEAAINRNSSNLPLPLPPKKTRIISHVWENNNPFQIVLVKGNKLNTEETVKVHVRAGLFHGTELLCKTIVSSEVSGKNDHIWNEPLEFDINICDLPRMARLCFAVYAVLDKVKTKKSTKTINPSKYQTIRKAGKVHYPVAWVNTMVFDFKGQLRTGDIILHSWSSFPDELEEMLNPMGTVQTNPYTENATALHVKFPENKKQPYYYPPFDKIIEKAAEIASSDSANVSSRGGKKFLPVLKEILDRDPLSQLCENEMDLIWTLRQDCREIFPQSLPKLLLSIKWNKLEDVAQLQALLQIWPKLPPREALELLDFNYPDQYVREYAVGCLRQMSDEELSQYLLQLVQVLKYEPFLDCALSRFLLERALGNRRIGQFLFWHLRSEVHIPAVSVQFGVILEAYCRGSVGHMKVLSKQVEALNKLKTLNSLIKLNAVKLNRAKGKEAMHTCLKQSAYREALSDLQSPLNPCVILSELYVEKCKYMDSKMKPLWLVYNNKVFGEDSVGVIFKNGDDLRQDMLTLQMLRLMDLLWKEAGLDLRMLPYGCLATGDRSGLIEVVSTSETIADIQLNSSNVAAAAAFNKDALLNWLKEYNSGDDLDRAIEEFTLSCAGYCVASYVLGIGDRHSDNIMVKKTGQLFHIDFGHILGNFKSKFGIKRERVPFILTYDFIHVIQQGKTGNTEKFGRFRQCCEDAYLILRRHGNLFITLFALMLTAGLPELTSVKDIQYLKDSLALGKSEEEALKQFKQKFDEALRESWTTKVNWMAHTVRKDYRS
# assay_remarks: Inhibition of recombinant human PI3K p110beta using PIP2/PS as substrate after 1 hr by ADP-Glo luminescence assay
readout_type: IC50 (nM)

1. O=S(=O)(Nc1cc(-c2cnc3[nH]cc(-c4ccncc4)c3c2)cnc1Cl)c1ccc(F)cc1 2
2. O=S(=O)(Nc1cc(-c2cnc3[nH]cc(-c4ccncc4)c3c2)cnc1Cl)c1ccccc1 2
3. O=S(=O)(Nc1cc(-c2cnc3[nH]nc(-c4ccncc4)c3c2)cnc1Cl)c1ccccc1 4
4. O=S(=O)(Nc1cc(-c2cnc3[nH]ccc3c2)cnc1Cl)c1ccccc1 35
5. O=S(=O)(Nc1cc(-c2cnc3[nH]ncc3c2)cnc1Cl)c1ccccc1 29
6. O=S(=O)(Nc1cc(-c2cnc3[nH]cc(-c4ccccc4)c3c2)cnc1Cl)c1ccccc1 39
7. O=S(=O)(Nc1cc(-c2cnc3[nH]cc(-c4ccncc4)c3c2)cnc1Cl)c1ccccc1F 3
8. O=S(=O)(Nc1cc(-c2cnc3[nH]nc(-c4ccccc4)c3c2)cnc1Cl)c1ccccc1 6

====

# assayed_target: Phosphatidylinositol 4,5-bisphosphate 3-kinase catalytic subunit gamma isoform (Homo sapiens, UniProt P48736)
# Sequence (P48736 whole entry, canonical isoform): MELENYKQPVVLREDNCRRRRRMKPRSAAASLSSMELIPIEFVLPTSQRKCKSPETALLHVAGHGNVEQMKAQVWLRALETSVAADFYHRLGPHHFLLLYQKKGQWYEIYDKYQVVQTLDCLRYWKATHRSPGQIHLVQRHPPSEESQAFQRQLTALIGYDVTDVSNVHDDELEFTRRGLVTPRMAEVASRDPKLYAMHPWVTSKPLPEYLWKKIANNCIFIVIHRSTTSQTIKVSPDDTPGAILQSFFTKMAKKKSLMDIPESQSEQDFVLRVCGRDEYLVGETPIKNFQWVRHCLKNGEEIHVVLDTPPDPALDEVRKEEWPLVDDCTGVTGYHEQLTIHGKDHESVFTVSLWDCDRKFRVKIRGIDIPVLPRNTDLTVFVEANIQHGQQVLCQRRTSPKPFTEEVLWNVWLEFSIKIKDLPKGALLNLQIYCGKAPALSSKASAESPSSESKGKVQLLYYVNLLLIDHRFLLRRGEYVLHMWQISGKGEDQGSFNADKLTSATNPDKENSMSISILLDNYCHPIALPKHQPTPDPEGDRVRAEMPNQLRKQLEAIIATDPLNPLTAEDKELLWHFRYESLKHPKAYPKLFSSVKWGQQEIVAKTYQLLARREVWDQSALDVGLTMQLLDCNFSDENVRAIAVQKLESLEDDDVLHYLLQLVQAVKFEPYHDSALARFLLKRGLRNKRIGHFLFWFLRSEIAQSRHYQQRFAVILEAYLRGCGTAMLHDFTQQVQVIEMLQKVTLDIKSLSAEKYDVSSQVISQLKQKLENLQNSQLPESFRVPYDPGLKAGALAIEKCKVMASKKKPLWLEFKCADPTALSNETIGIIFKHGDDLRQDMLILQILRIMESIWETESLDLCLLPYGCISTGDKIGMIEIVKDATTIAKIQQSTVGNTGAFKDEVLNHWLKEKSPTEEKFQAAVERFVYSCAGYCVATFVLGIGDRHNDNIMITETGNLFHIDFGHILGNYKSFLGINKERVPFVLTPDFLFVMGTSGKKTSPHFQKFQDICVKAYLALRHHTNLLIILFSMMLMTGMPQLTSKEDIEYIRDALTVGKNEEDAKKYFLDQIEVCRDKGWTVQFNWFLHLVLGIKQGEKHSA
pIC50: −log10 of the molar value.
Assign class by pIC50: not lower than 6 means Yes; lower than 6 means No.

1. O=S(=O)(Nc1cc(-c2cnc3[nH]c(-c4ccccc4)cc3c2)cnc1Cl)c1ccccc1 Yes
2. Nc1ccc(-c2cnc(N)c(NS(=O)(=O)c3ccccc3)c2)cn1 No
3. Nc1ccc(-c2cncc(NS(=O)(=O)c3ccccc3)c2)cn1 No
4. CS(=O)(=O)Nc1ccc(-c2cnc(Cl)c(NS(=O)(=O)c3ccccc3)c2)cn1 No
5. Nc1ccc(-c2cnc(Cl)c(NS(=O)(=O)c3ccccc3)c2)cn1 Yes
6. O=S(=O)(Nc1cc(-c2cnc3[nH]nc(-c4ccccc4)c3c2)cnc1Cl)c1ccccc1 Yes
7. CC(=O)Nc1ccc(-c2cnc(Cl)c(NS(=O)(=O)c3ccccc3)c2)cn1 Yes
8. O=S(=O)(Nc1cc(-c2cnc3[nH]cc(-c4ccncc4)c3c2)cnc1Cl)c1ccccc1F Yes
9. COc1ncc(-c2ccc(N)nc2)cc1NS(=O)(=O)c1ccccc1 No
10. O=S(=O)(Nc1cc(-c2cnc3[nH]cc(-c4ccncc4)c3c2)cnc1Cl)c1ccccc1 Yes
11. Cc1ncc(-c2ccc(N)nc2)cc1NS(=O)(=O)c1ccccc1 Yes
12. O=S(=O)(Nc1cc(-c2cnc3[nH]ncc3c2)cnc1Cl)c1ccccc1 Yes
13. CCc1cc2cc(-c3cnc(Cl)c(NS(=O)(=O)c4ccccc4)c3)cnc2[nH]1 Yes
14. Cc1cc2cc(-c3cnc(Cl)c(NS(=O)(=O)c4ccccc4)c3)cnc2[nH]1 Yes
